Data origin, for the record: patent US20090312349A1

Kindly state IC50 for each of the entries shown.
- TESTED SYSTEM: phospho p-38 alpha kinase (Homo sapiens)
- Construct: purchased Panvera
- Sequence (Q16539 whole entry): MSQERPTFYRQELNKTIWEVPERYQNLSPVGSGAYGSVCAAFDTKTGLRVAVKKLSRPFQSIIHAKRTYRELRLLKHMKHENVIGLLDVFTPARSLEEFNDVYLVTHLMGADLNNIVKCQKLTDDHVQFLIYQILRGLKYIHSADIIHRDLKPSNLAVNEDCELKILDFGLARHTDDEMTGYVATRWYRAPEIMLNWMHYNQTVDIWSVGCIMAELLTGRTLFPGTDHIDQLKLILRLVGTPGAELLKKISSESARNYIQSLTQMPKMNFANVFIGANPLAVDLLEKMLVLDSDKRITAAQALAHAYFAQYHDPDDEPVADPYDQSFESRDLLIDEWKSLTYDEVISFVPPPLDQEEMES
- METHOD DESCRIPTION: P-38 alpha kinase assay (spectrophotometric, pyruvate kinase/lactate dehydrogenase coupled)
- Type: biochemical
- CONDITION CONTEXT: Table 5; assay not named; read-out: uM
The response must be a number in µM with no trailing unit.

Sample O=C(Cc1ccc(-n2nc(-c3cccs3)cc2NC(=O)Nc2cccc(Cl)c2Cl)cc1)NCC(O)CO (centres unmarked) [Example 472] ; IC50 observed: 0.05

Sample CC(C)c1cc(NC(=O)Nc2cccc3ccccc23)n(-c2cccc(C(C)(C)O)c2)n1 [Example 333] ; IC50 observed: 2.44

Sample CC(C)(C)c1cc(NC(=O)Nc2cccc(-c3cnccn3)c2)n(-c2cccc(CC(N)=O)c2)n1 [Example 509] ; IC50 observed: 0.5

Sample CC(C)(C)c1cc(NC(=O)Nc2cccc(Cl)c2Cl)n(-c2ccc(C(=O)O)cc2)n1 [Example 365] ; IC50 observed: 0.007

Sample CC(C)(C)c1cc(NC(=O)Nc2cccc3ccccc23)n(-c2ccc3c(c2)CNCC3)n1 [Example 406] ; IC50 observed: 0.0134

Sample CC(C)(C)c1cc(NC(=O)Nc2ccc(Cl)cc2)n(-c2ccc(O)cc2)n1 [Example 421] ; IC50 observed: 0.0147

Sample CC(Cc1cccc(-n2nc(-c3cccs3)cc2NC(=O)Nc2cccc(Cl)c2Cl)c1)C(=O)O (centres unmarked) [Example 490] ; IC50 observed: 0.34

Sample O=C(Cc1cccc(-n2nc(-c3ccccc3F)cc2NC(=O)Nc2cccc(Cl)c2Cl)c1)NC(CO)CO [Example 461] ; IC50 observed: 0.017

====

- TESTED SYSTEM: B-Raf(V599E) kinase (Homo sapiens, UniProt P15056, V600E)
- Sequence (P15056 with tags, fused parts or gaps V600E): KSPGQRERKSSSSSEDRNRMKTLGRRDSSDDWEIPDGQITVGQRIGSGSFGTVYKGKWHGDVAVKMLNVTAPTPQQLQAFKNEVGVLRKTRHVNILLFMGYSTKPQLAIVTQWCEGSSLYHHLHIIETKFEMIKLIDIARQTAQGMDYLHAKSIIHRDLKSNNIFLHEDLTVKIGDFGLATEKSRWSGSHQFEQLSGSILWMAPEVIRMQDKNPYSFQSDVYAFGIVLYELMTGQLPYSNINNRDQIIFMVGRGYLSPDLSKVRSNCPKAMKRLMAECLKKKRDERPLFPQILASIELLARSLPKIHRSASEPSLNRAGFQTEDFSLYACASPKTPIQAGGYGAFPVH
- METHOD DESCRIPTION: B-Raf(V599E) kinase assay B1
- Assay type: biochemical
- CONDITION CONTEXT: read-out: Results, % @ concentration μM
Kindly state inhibition at 1 µM for each of the entries shown.
The response must be a number in % with no trailing unit.

Note to self: inhibition at 1 µM of O=C(Cc1cccc(-n2nc(-c3ccsc3)cc2NC(=O)Nc2cccc(Cl)c2Cl)c1)NCCO with B-Raf(V599E) kinase (Homo sapiens, UniProt P15056, V600E) was 28

Note to self: inhibition at 1 µM of O=C(O)Cc1ccc(-n2nc(-c3cccs3)cc2NC(=O)Nc2cccc(Cl)c2Cl)cc1 with B-Raf(V599E) kinase (Homo sapiens, UniProt P15056, V600E) was 24

Note to self: inhibition at 1 µM of NC(=O)Cc1ccc(-n2nc(-c3ccccc3F)cc2NC(=O)Nc2cccc(Cl)c2Cl)cc1 with B-Raf(V599E) kinase (Homo sapiens, UniProt P15056, V600E) was 24

Note to self: inhibition at 1 µM of NC(=O)Cc1ccc(-n2nc(-c3ccsc3)cc2NC(=O)Nc2cccc(Cl)c2Cl)cc1 with B-Raf(V599E) kinase (Homo sapiens, UniProt P15056, V600E) was 43

Note to self: inhibition at 1 µM of CC(C(=O)O)c1ccc(-n2nc(-c3cccs3)cc2NC(=O)Nc2cccc(Cl)c2Cl)cc1 (centres unmarked) with B-Raf(V599E) kinase (Homo sapiens, UniProt P15056, V600E) was 20

Note to self: inhibition at 1 µM of O=C(Cc1cccc(-n2nc(-c3cccs3)cc2NC(=O)Nc2cccc(Cl)c2Cl)c1)NC(CO)CO with B-Raf(V599E) kinase (Homo sapiens, UniProt P15056, V600E) was 43

Note to self: inhibition at 1 µM of O=C(Cc1cccc(-n2nc(-c3cccc(F)c3)cc2NC(=O)Nc2cccc(Cl)c2Cl)c1)NCCO with B-Raf(V599E) kinase (Homo sapiens, UniProt P15056, V600E) was 30

Note to self: inhibition at 1 µM of O=C(O)Cc1ccc(-n2nc(-c3ccsc3)cc2NC(=O)Nc2cccc(Cl)c2Cl)cc1 with B-Raf(V599E) kinase (Homo sapiens, UniProt P15056, V600E) was 42
